- TARGET_UNDER_TEST: CDK17/Cyclin Y (Homo sapiens)
- MEASUREMENT_PROTOCOL: NanoBRET live-cell target engagement, CDK17-NanoLuc/Cyclin Y in HEK-293
- Type: binding
- TEST_CONDITIONS: CDK17/Y; 10µM; average of replicates
Please go through the items and note down their Inhibition at 10µM (%) Average.
Give bare numbers, in %.

# annotated cases, reported Inhibition at 10µM (%) Average shown
| COMPOUND | TARGET_UNDER_TEST | Inhibition at 10µM (%) Average |
| --- | --- | --- |
| CNC1CCN(C(=O)c2ccc(Nc3ncc(F)c(-c4cnc(C)n4C(C)C)n3)cc2)C1 (stereo not shown) | CDK17/Cyclin Y (Homo sapiens) | 91.3 |
| CC(C)c1cnn2c(NCc3ccccc3)cc(N[C@@H](CO)[C@H](O)CO)nc12 | CDK17/Cyclin Y (Homo sapiens) | 80.0 |
| O=C(Nc1c[nH]nc1-c1ccccn1)c1nn(C2CCNCC2)cc1Cl | CDK17/Cyclin Y (Homo sapiens) | 1.0 |

Then this compound:
Fill in: Inhibition at 10µM (%) Average of CCC(CO)Nc1nc(Nc2cccc(-c3ccccn3)c2)c2ncn(C(C)C)c2n1.Cl.O [(R) - DRF053] is ___
27.1

====

- TARGET_UNDER_TEST: CDK17/Cyclin Y (Homo sapiens, UniProt Q00537)
- Sequence (Q00537 whole entry): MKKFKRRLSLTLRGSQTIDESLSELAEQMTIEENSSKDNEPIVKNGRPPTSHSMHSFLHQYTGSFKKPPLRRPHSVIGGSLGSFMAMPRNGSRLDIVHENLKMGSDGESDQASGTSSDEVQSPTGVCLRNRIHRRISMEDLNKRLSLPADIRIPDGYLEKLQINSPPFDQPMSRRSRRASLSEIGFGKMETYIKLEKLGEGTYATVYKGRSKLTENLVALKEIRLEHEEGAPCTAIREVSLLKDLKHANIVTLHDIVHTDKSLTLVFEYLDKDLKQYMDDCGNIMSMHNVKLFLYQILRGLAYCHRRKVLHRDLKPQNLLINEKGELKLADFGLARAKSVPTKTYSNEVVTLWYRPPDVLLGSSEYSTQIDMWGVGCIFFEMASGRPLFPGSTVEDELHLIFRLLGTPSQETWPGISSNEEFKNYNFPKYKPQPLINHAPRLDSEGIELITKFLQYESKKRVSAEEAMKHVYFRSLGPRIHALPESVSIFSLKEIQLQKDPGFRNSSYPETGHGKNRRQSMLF
- Sequence (Q8ND76 whole entry partner): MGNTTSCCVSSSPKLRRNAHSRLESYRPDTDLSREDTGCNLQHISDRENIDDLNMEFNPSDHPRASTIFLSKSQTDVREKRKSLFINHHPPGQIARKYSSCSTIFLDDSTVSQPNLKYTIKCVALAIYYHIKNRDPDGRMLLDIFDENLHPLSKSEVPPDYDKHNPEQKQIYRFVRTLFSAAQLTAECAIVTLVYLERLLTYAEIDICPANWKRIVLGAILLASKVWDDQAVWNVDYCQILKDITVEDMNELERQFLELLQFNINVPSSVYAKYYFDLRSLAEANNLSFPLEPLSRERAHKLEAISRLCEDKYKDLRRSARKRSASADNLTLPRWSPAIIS
- MEASUREMENT_PROTOCOL: NanoBRET live-cell target engagement, CDK17-NanoLuc/Cyclin Y in HEK-293
- Format: binding
- TEST_CONDITIONS: independent experiment 3; read-out: CDK17/Y IC50
MEASUREMENT_TYPE: pIC50
One number for each entry, as −log10 of the molar value.

Fill in: pIC50 of "CN1CCN(c2ccc(Nc3ncc4cc5n(c4n3)C3(CCCCC3)CNC5=O)nc2)CC1" is ___
6.20

====

Please go through the items and note down their Inhibition at 10µM (%) Replicate 1.
- TARGET_UNDER_TEST: CDK9/Cyclin K (Homo sapiens, UniProt P50750)
- Sequence (P50750 whole entry): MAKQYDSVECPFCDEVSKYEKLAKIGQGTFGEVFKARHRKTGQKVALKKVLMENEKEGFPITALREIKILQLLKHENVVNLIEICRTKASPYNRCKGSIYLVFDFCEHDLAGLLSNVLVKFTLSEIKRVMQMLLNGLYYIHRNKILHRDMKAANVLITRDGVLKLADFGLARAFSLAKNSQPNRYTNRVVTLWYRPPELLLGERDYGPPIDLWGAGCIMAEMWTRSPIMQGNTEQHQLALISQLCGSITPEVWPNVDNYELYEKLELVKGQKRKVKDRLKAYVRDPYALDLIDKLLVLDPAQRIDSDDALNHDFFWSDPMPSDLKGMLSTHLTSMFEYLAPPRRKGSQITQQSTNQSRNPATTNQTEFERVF
- Sequence (O75909 whole entry partner): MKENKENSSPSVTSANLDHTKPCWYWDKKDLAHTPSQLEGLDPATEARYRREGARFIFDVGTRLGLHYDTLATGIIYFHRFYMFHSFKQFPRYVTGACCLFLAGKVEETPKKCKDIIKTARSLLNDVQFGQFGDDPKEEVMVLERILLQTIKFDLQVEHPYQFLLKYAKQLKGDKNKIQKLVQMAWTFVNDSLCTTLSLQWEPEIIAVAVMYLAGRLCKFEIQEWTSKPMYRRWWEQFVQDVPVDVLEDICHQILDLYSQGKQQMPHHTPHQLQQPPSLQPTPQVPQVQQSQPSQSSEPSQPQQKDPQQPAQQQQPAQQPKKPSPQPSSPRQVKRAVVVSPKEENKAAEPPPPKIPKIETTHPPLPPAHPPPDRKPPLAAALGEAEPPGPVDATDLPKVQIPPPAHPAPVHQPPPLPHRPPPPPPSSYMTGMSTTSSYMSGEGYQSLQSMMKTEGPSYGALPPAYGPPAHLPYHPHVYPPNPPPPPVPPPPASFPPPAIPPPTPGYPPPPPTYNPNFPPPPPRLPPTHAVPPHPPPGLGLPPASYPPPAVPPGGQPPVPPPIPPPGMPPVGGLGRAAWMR
- MEASUREMENT_PROTOCOL: NanoBRET live-cell target engagement, NanoLuc-CDK9/Cyclin K in HEK-293
- Type: binding
- TEST_CONDITIONS: CDK9/K; 10µM
Numbers only, in %.

| MOLECULE | TARGET_UNDER_TEST | OBSERVED_VALUE |
| --- | --- | --- |
| CNC1CCN(C(=O)c2ccc(Nc3ncc(F)c(-c4cnc(C)n4C(C)C)n3)cc2)C1 (stereo not shown) | CDK9/Cyclin K (Homo sapiens, UniProt P50750) | 98.2 |
| O=C(Nc1c[nH]nc1-c1ccccn1)c1nn(C2CCNCC2)cc1Cl | CDK9/Cyclin K (Homo sapiens, UniProt P50750) | 12.5 |
| CCC(CO)Nc1nc(Nc2cccc(-c3ccccn3)c2)c2ncn(C(C)C)c2n1.Cl.O [(R) - DRF053] | CDK9/Cyclin K (Homo sapiens, UniProt P50750) | 18.8 |

Then this molecule:
Provide value of Inhibition at 10µM (%) Replicate 1 for this record tested with CDK9/Cyclin K (Homo sapiens, UniProt P50750): "CC(C)c1cnn2c(NCc3ccccc3)cc(N[C@@H](CO)[C@H](O)CO)nc12"
99.1

====

- TARGET_UNDER_TEST: CDK7 (Homo sapiens, UniProt P50613)
- Sequence (P50613 whole entry): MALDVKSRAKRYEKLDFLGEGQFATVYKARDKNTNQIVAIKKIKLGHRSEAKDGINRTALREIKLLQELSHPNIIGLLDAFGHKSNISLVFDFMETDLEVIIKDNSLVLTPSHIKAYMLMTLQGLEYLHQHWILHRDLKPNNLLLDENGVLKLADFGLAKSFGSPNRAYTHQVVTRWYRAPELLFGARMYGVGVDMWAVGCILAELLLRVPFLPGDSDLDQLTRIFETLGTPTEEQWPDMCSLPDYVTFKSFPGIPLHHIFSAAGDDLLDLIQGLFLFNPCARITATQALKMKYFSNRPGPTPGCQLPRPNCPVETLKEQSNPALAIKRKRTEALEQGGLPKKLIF
- MEASUREMENT_PROTOCOL: NanoBRET live-cell target engagement, NanoLuc-CDK7 in HEK-293
- Type: binding
- TEST_CONDITIONS: CDK7; experiment 1
Under this convention, true denotes Inhibition at 10µM (%) strictly below 90% and false denotes Inhibition at 10µM (%) at or above 90%.

| MOLECULE | DISCRETE_LABEL |
| --- | --- |
| CC(C)c1cnn2c(NCc3ccccc3-n3cccn3)nc(OC3CCCNC3)nc12 (centres unmarked) | false |
| CS(=O)(=O)N1CCC(NC(=O)c2[nH]ncc2NC(=O)c2c(Cl)cccc2Cl)CC1 | true |
| CN1CCC(c2c(O)cc(O)c3c(=O)cc(-c4ccccc4Cl)oc23)C1CO (centres unmarked) | true |

Here is the next item to consider.
For this molecule, is Inhibition at 10µM (%) lower than 90%? CCn1cnc2c(Nc3cccc(Cl)c3)nc(N[C@@H]3CCCC[C@@H]3N)nc21 [CGP74514A]
false

====

Please go through the items and note down their CDK11a/L2 Inhibition at 10µM (%).
- TARGET_UNDER_TEST: CDK11A/Cyclin L2 (Homo sapiens, UniProt Q9UQ88)
- Sequence (Q9UQ88 whole entry): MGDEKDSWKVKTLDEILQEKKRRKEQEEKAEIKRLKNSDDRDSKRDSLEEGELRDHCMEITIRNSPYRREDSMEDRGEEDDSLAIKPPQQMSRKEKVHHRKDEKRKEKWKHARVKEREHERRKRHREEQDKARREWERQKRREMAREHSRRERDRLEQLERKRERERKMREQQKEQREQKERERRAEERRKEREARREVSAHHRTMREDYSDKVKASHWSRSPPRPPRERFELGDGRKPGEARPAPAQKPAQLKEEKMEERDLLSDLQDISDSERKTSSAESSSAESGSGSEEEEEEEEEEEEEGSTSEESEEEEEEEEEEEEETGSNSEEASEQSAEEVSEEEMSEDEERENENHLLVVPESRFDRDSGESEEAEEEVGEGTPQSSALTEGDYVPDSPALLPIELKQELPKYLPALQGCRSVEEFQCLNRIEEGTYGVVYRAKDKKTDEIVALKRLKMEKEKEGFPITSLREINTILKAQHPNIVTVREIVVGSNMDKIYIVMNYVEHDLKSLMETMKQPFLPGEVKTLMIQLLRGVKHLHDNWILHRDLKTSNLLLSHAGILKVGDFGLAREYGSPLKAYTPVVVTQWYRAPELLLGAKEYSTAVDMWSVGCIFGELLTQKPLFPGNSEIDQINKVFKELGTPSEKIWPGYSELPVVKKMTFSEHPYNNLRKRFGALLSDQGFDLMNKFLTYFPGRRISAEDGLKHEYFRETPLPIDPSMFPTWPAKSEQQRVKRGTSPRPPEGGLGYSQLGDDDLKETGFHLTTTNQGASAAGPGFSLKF
- MEASUREMENT_PROTOCOL: NanoBRET live-cell target engagement, CDK11A-NanoLuc/Cyclin L2 in HEK-293
- Type: binding
- TEST_CONDITIONS: 10µM; independent experiment 2
One number for each entry, in %.

| COMPOUND | UNIT_NAME | CDK11a/L2 Inhibition at 10µM (%) |
| --- | --- | --- |
| O=C1NC(=NCc2cccs2)S/C1=C\c1ccc2ncccc2c1 | % | -0.5 |

Provide each entry's CDK11a/L2 Inhibition at 10µM (%) from the list below.
1. O=C1NCCc2[nH]c(-c3ccncc3)cc21
2. CN(C)C/C=C/C(=O)Nc1ccc(C(=O)Nc2cccc(Nc3ncc(Cl)c(-c4c[nH]c5ccccc45)n3)c2)cc1

1. 21.5
2. 77.1

Fill in: CDK11a/L2 Inhibition at 10µM (%) of Cc1c(Br)c(Br)c2c3c1nc(N1CCNCC1)n3CCC2.Cl [SEL 120-34A] is ___
56.3

====

Please go through the items and note down their CDK9/K Inhibition at 10µM (%).
- TARGET_UNDER_TEST: CDK9/Cyclin K (Homo sapiens, UniProt P50750)
- MEASUREMENT_PROTOCOL: NanoBRET live-cell target engagement, NanoLuc-CDK9/Cyclin K in HEK-293
- Assay type: binding
- TEST_CONDITIONS: 10µM; independent experiment 2
Numbers only, in %.

# annotated cases, reported CDK9/K Inhibition at 10µM (%) shown
| COMPOUND | CDK9/K Inhibition at 10µM (%) |
| --- | --- |
| O=C1NCCc2[nH]c(-c3ccncc3)cc21 | 94.7 |
| CN(C)C/C=C/C(=O)Nc1ccc(C(=O)Nc2cccc(Nc3ncc(Cl)c(-c4c[nH]c5ccccc45)n3)c2)cc1 | 96.0 |
| Cc1c(Br)c(Br)c2c3c1nc(N1CCNCC1)n3CCC2.Cl [SEL 120-34A] | 87.6 |

Fill in: CDK9/K Inhibition at 10µM (%) of "O=C1NC(=NCc2cccs2)S/C1=C\c1ccc2ncccc2c1" is ___
48.5

====

Please go through the items and note down their IC50.
- TARGET_UNDER_TEST: CDK14/Cyclin Y (Homo sapiens, UniProt O94921)
- Sequence (O94921 whole entry): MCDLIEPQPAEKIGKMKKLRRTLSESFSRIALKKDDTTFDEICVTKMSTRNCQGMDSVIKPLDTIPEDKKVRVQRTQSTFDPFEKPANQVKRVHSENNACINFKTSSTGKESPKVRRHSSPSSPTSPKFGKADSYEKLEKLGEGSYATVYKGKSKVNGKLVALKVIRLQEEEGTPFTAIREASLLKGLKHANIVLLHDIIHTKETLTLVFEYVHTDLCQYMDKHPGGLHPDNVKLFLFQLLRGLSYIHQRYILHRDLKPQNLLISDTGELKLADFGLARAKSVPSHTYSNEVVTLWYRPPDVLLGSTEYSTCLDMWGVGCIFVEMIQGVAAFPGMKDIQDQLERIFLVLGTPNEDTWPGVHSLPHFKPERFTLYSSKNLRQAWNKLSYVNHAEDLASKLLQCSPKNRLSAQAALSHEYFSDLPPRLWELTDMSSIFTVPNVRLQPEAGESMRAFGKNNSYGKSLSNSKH
- Sequence (Q8ND76 whole entry partner): as the sequence (Q8ND76 whole entry partner) above
- MEASUREMENT_PROTOCOL: NanoBRET live-cell target engagement, CDK14-NanoLuc/Cyclin Y in HEK-293
- Format: binding
- TEST_CONDITIONS: CDK14/Y; experiment 1; read-out: IC50
Number first, unit second: that is the form wanted.

| SMILES | IC50 |
| --- | --- |
| CS(=O)(=O)N1CCC(NC(=O)c2[nH]ncc2NC(=O)c2c(Cl)cccc2Cl)CC1 | 607 nM |
| CN1CCN(c2ccc(Nc3ncc4cc(C#N)c(=O)n(C5CCCC5)c4n3)cc2)CC1 | 34 nM |
| CNc1nc(C)c(-c2nc(Nc3cccc(S(N)(=O)=O)c3)ncc2F)s1 | 59 nM |

Then this compound:
Fill in: IC50 of "CC(C)c1c2cc(-c3ccnc(N[C@H]4CC[C@H](NC5CCOCC5)CC4)n3)ccc2nn1C" is ___
392 nM

====

Please go through the items and note down their CDK17/Y Inhibition at 10µM (%).
- TARGET_UNDER_TEST: CDK17/Cyclin Y (Homo sapiens, UniProt Q00537)
- MEASUREMENT_PROTOCOL: NanoBRET live-cell target engagement, CDK17-NanoLuc/Cyclin Y in HEK-293
- Type: binding
- TEST_CONDITIONS: 10µM; independent experiment 2
Answers are plain numbers, in %.

| COMPOUND | UNIT_NAME | CDK17/Y Inhibition at 10µM (%) |
| --- | --- | --- |
| Cc1c(Br)c(Br)c2c3c1nc(N1CCNCC1)n3CCC2.Cl [SEL 120-34A] | % | 32.0 |
| CN(C)C/C=C/C(=O)Nc1ccc(C(=O)Nc2cccc(Nc3ncc(Cl)c(-c4c[nH]c5ccccc45)n3)c2)cc1 | % | 27.8 |
| O=C1NC(=NCc2cccs2)S/C1=C\c1ccc2ncccc2c1 | % | 66.1 |

Then this compound:
Fill in: CDK17/Y Inhibition at 10µM (%) of "O=C1NCCc2[nH]c(-c3ccncc3)cc21" is ___
18.1
